Please provide measured viability at 100 µM for the entries that follow.
Tested on: human breast carcinoma (MDA-MB-231)
Assay Info: MTS metabolic activity assay, MDA-MB-231 cells
Type: cell-based
Settings: Homo sapiens; MDA-MB-231, 100 µM, 72 h; read-out: Cell metabolic activity (MTS), % of untreated control

For this compound ( `O=C1N=C(NC2CCCC2)SC12CCCCC2` ), measured viability at 100 µM is 93.5%

For record CCCC1SC(NC2CCCC2)=NC1=O (stereo not drawn) the listed viability at 100 µM is 97.4%

Lab note: measured viability at 100 µM of O=C1N=C(NC2CCCC2)SC1c1ccccc1 (stereo not drawn) was 95.9%
